# TARGET OF ASSAY: DOR (Homo sapiens)
# Sequence (P41143 whole entry): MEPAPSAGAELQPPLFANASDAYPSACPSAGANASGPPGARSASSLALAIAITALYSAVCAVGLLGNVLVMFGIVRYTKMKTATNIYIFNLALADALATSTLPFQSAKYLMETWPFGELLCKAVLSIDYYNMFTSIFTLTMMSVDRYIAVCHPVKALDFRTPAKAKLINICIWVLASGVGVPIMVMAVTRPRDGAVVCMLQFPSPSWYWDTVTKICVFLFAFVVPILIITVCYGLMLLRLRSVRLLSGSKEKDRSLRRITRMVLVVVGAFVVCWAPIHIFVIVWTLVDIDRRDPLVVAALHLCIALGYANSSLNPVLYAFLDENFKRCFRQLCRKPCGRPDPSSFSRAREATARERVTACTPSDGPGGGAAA
# TEST NAME: β-arrestin-recruitment TANGO assay at DOR
# Type: cell-based
# STUDY CONDITIONS: 10 μM; vs naloxone 121 = 100% inhibition
ENDPOINT LABEL: DOR Antag (%)
# unit: % | format: bare number

# annotated cases, reported DOR Antag (%) shown
Problem: Could you share which DOR Antag (%) value was measured for CCOC(=O)[C@@]12C[C@@H]1[C@@H](n1ccc3c(NC)nc(C#Cc4ccc(Cl)s4)nc31)[C@H](O)[C@@H]2O ?
Result: 85.4

Problem: Could you share which DOR Antag (%) value was measured for CCOC(=O)[C@@]12C[C@@H]1[C@@H](n1ccc3c(NC)nc(C#Cc4ccc(Br)s4)nc31)[C@H](O)[C@@H]2O ?
Result: 93.2

// next entry
Problem: Could you share which DOR Antag (%) value was measured for CNC(=O)[C@@]12C[C@@H]1[C@@H](n1cnc3c(NCc4cccc(Cl)c4)nc(C#Cc4ccc(F)c(F)c4)nc31)[C@H](O)[C@@H]2O ?
Result: 25.3
